Recorded pIC50 values for a group of compounds are listed next.
# System tested: HMGCoA (3-Hydroxy-3-methylglutaryl CoA) Reductase (Rattus norvegicus, UniProt P51639)
# Sequence (P51639 1-887): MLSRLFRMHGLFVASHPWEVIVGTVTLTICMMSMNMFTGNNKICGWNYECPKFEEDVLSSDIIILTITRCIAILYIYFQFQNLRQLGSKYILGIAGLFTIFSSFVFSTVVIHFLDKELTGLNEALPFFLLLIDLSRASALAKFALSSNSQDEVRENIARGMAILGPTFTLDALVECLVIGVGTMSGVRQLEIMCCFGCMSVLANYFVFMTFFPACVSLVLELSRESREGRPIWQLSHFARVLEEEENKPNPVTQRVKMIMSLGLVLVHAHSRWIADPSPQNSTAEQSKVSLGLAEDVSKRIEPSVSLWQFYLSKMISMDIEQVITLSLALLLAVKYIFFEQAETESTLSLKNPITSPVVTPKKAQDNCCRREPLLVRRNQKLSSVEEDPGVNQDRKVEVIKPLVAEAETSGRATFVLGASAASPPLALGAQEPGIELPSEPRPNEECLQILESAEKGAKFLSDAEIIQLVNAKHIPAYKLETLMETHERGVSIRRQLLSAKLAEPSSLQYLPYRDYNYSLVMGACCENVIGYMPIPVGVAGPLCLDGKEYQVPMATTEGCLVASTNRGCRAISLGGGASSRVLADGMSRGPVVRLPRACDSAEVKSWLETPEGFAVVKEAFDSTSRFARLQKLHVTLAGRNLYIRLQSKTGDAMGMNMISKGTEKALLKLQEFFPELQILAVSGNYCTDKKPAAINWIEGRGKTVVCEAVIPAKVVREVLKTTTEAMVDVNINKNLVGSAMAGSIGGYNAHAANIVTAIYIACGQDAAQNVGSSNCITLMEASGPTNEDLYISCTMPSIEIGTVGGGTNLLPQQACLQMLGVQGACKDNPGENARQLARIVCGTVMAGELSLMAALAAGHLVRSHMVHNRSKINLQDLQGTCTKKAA
Quick note: pIC50 values are minus log10 of concentrations in mol/L.

{"Chemical string": "Cc1cc(CNC(=O)c2nc(-c3ccc(F)cc3)n(CC[C@@H](O)C[C@@H](O)CC(=O)O)c2C(C)C)no1", "Recorded measurement": 8.14}
{"Chemical string": "CN(Cc1ccccc1)C(=O)c1nc(-c2ccc(F)cc2)n(CC[C@@H](O)C[C@@H](O)CC(=O)O)c1C1CC1", "Recorded measurement": 8.08}
{"Chemical string": "O=C(O)C[C@H](O)C[C@H](O)CCn1c(-c2ccc(F)cc2)nc(C(=O)NCc2ccccc2)c1C1CC1", "Recorded measurement": 8.86}
{"Chemical string": "COc1ccc(CNC(=O)c2nc(-c3ccc(F)cc3)n(CC[C@@H](O)C[C@@H](O)CC(=O)O)c2C2CC2)cc1", "Recorded measurement": 8.93}
{"Chemical string": "CC(C)c1c(C(=O)NCc2ccccc2)nc(-c2ccc(F)cc2)n1CC[C@@H](O)C[C@@H](O)CC(=O)O", "Recorded measurement": 8.10}
{"Chemical string": "O=C1C[C@H](O)C[C@@H](CCn2c(-c3ccc(F)cc3)nc(C(=O)NCc3ccccc3)c2C2CC2)O1", "Recorded measurement": 7.30}

In: Param item = CC(C)c1c(C(=O)N2CCN(c3ccc(F)cc3F)CC2)nc(-c2ccc(F)cc2)n1CC[C@@H](O)C[C@@H](O)CC(=O)O ; retrieve measured pIC50.
Out: 8.66

In: Also COc1ccc(CNC(=O)c2nc(-c3ccc(F)cc3)n(CC[C@@H]3C[C@@H](O)CC(=O)O3)c2C2CC2)cc1 ?
Out: 7.12
